Observed MIC for Streptococcus faecium ATCC 8043, reported per entry below.
Expressed in mg/L, but write only the number.

Known MIC results, listed for orientation:
>>> assay_value("CCc1c(Cl)c(O)c(Cl)c(O)c1C(=O)OC1C(C)OC(OCC2=CC=CCC(O)C(C)=CC(CC)C(OC3OC(C)(C)C(O)C(OC(=O)C(C)C)C3O)C(C)=CC(C)=CCC(C(C)O)OC2=O)C(OC)C1O (centres unmarked) [Tiacumicin F]")
6.2
>>> assay_value("CCc1c(Cl)c(O)c(Cl)c(O)c1C(=O)OC1C(C)OC(OCC2=CC=CCC(O)C(C)=CC(CC)C(OC3OC(C)(C)C(O)C(O)C3OC(=O)C(C)C)C(C)=CC(C)=CCC(C(C)O)OC2=O)C(OC)C1O (centres unmarked) [Tiacumicin C]")
100
>>> assay_value("CCC(=O)OC1C(OC2C(C)=CC(C)=CCC(C(C)O)OC(=O)C(COC3OC(C)C(OC(=O)c4c(O)c(Cl)c(O)c(Cl)c4CC)C(O)C3OC)=CC=CCC(O)C(C)=CC2CC)OC(C)(C)C(O)C1O (centres unmarked) [Tiacumicin E]")
12.5

Report measured MIC on Streptococcus faecium ATCC 8043; entry: CCc1c(Cl)c(O)c(Cl)c(O)c1C(=O)OC1C(C)OC(OCC2=CC=CCC(O)C(C)=CC(CC)C(OC3OC(C)(C)C(OC(=O)C(C)C)C(O)C3O)C(C)=CC(C)=CCC(C(C)O)OC2=O)C(OC)C1O (centres unmarked) [Tiacumicin B]
12.5
